Experiment: molar heat capacity at constant pressure
Settings: 70 K; 101.33 kPa; Crystal; relaxation calorimetry
RECORDED_ENDPOINT: molar heat capacity at constant pressure (J/K/mol)
Response body: numeric value in J/K/mol, unit text excluded.

Query: May I ask what molar heat capacity at constant pressure has been recorded for O[C@H]1[C@H](O)[C@@H](O)[C@H](O)[C@@H](O)[C@H]1O [cis-1,2,3,5-trans-4,6-cyclohexanehexol] ?
Result: 47.02

Query: State the recorded molar heat capacity at constant pressure for this entry: OC[C@@H](O)C(O)[C@H](O)CO [D-arabitol]
Result: 54.16

Query: Please give the measured molar heat capacity at constant pressure for this compound: OC[C@@H](O)[C@@H](O)[C@H](O)[C@H](O)CO [D-mannitol]
Result: 61.48

Query: // query molar heat capacity at constant pressure value for entry OC[C@@H](O)[C@H](O)[C@@H](O)CO [xylitol]
Result: 52.03

Query: What molar heat capacity at constant pressure value was documented for this compound, OC[C@@H](O)[C@@H](O)CO [meso-1,2,3,4-butanetetrol] ?
Result: 44.95

Query: I'd like to know its molar heat capacity at constant pressure. The compound in question is OC[C@H](O)C(O)[C@@H](O)CO [L-(-)-arabitol]
Result: 54.55
